Reported ELISA binding mIL-12RB2/control values are given for each entry in this list.
- target desc: T1, biotinylated recombinant mouse IL-12Rβ2 (mouse, UniProt P97378 24-637, random biotinylated)
- T1 construct: Recombinant protein produced in-house, biotinylated; also called mIL-12RB2; mouse IL-12RB2
- T1 sequence: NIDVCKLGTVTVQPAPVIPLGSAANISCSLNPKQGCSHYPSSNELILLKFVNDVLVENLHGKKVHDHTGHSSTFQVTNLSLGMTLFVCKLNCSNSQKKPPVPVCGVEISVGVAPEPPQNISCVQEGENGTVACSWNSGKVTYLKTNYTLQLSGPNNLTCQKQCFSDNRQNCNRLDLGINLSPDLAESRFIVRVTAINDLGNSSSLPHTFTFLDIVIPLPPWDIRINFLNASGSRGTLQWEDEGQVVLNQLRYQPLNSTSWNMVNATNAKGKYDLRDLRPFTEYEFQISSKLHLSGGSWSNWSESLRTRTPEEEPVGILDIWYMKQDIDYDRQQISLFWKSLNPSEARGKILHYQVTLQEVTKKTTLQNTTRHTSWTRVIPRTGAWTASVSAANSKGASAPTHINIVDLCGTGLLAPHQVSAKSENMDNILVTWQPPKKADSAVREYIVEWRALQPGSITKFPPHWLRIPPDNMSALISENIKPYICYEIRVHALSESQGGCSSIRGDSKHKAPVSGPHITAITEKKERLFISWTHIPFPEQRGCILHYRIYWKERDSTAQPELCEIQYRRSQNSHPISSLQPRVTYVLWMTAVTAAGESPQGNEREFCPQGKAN
- assay method text: ELISA, periplasmic extract on biotinylated mIL-12Rβ2, signal over control wells

{"binder": "anti-IL-12Rβ2 VHH clone 20370 (VHH, not shown: small tags and cut ends, tested as periplasmic extract; also called 2CRH76) VHH: QVQLQESGGGLVQTGGSLRLSCVASGRTFNWSAMGWFRQPPGKEREVVATISGGGTSAYYADSVKGRFTISRDGAKNTLYLQMNSLKPEDTAVYYCAADRVDYRMTLTQNGNHYWGQGTQVTVSS", "ELISA binding mIL-12RB2/control / ratio": 0.937}
{"binder": "anti-IL-12Rβ2 VHH clone 20510 (VHH, not shown: small tags and cut ends, tested as periplasmic extract; also called 3CAM31) VHH: QVQLQESGGGLVQAGGSLRLSCAASGRTFSSYGMGWFRQAPGKEREFVAAISRGARITDYADSVKGRFTISRDNAKNTAYLQMNSLNPEDTAVYFCAAAYTYSGSHYVTARSSDYHSWGQGTQVTVSS", "ELISA binding mIL-12RB2/control / ratio": 16.4}
{"binder": "anti-IL-12Rβ2 VHH clone 20517 (VHH, not shown: small tags and cut ends, tested as periplasmic extract; also called 2CRMS10) VHH: QVQLQESGGGLAQPGGSLRLSCTASGSIFAIDDMYWYRQAPGKQREFVAYITATNSANYLDSVNGRFTISRDNAKNSVYLQMNSLKPEDTAVYYCNAKQIVGFQIDEYWGQGTQVTVSS", "ELISA binding mIL-12RB2/control / ratio": 5.47}
{"binder": "anti-IL-12Rβ2 VHH clone 21052 (VHH, not shown: small tags and cut ends, tested as periplasmic extract; also called 3CRHM12) VHH: QVQLQESGGGSVQAGGSLRLSCAVSGRTVSDYAMGWFRQAPGKEREFVAAMSSSETTVYPNSVKGRITISRDNAKNAVYLQMNALKPEDTAVYYCSMGPIVTFQGLARQNEYHYWGQGTQVTVSS", "ELISA binding mIL-12RB2/control / ratio": 38.3}
